Catalogue of growth inhibition readings, one per entry.
Test system: HGGX6 (H3.3 G34R paediatric high-grade glioma line)
protocol: growth inhibition (% activity, log2 RLU normalised to DMSO / staurosporine); higher = more growth inhibition
test context: 33 µM
reported metric: growth inhibition (%)

[[record]]
compound = "Cc1oncc1C(=O)Nc1ccc(C(F)(F)F)cc1"
reported_metric = "growth inhibition"
reported = 9.78

[[record]]
compound = "Cn1c(=O)c2c(ncn2CC(O)CO)n(C)c1=O (stereo unspecified)"
reported_metric = "growth inhibition"
reported = -0.962

[[record]]
compound = "CCC(C)(C)c1ccc(CC(C)CN2C[C@@H](C)O[C@@H](C)C2)cc1 (stereo partly specified)"
reported_metric = "growth inhibition"
reported = 11.1

[[record]]
compound = "COc1cnc(NS(=O)(=O)c2ccc(N)cc2)nc1"
reported_metric = "growth inhibition"
reported = 0.442

[[record]]
compound = "CN(Cc1ccc(C(C)(C)C)cc1)Cc1cccc2ccccc12"
reported_metric = "growth inhibition"
reported = 1.49

[[record]]
compound = "CN1CCN2c3ccccc3Cc3ccccc3C2C1 (stereo unspecified)"
reported_metric = "growth inhibition"
reported = -2.26


The origin of these recorded values is the supplement of paper PMC8253809.
